Origin of the recorded values: paper PMC12454493

Tested on: HCT-116
Test: NCI-60 one-dose SRB screen (Colon Cancer)
Assay type: cell-based
Settings: Homo sapiens, single dose 10 µM, 48 h, read-out: Growth inhibition percent (GI %)
Reported inhibition at 10 µM is given for each of the following compounds.
Note: unit % is implicit; provide only the numeric part.

COc1ccc(-c2nn(-c3ccc(S(N)(=O)=O)cc3)cc2C(=O)OCC(=O)Nc2ccc(S(N)(=O)=O)cc2)cc1; 37.5

Prompt: State inhibition at 10 µM (HCT-116) of `CCOC(=O)c1ccc(NC(=O)COC(=O)c2cn(-c3ccc(S(N)(=O)=O)cc3)nc2-c2ccccc2)cc1` .
Completion: 75.8

Prompt: Write inhibition at 10 µM of `CCOC(=O)c1ccc(NC(=O)COC(=O)c2cn(-c3ccc(S(N)(=O)=O)cc3)nc2-c2ccc(C)cc2)cc1` ; system used: HCT-116
Completion: 60.7

Prompt: Given `NS(=O)(=O)c1ccc(NC(=O)COC(=O)c2cn(-c3ccc(S(N)(=O)=O)cc3)nc2-c2ccccc2)cc1` , report its inhibition at 10 µM on HCT-116.
Completion: 27.8
